Data provenance: patent US9802899B2

Method Notes: Determination of the log P values by HPLC (formic acid method)
Format: physicochemical
Run Parameters: reversed-phase column (C 18), acidic range (pH 3.4), 55° C.
Each entry below carries its recorded log P.
Kindly provide the number alone.

# annotated cases, reported log P shown
Compound: Cc1cc(NC(=O)c2ccccc2Cl)nn1-c1ccccc1Cl [Compound I-1-31]
log P: 2.45

Compound: O=C(Nc1ccn(-c2ncc(F)cc2F)n1)c1cccnc1Cl [Compound I-1-152]
log P: 1.72

Compound: O=C(Nc1nn(-c2ncc(F)cc2F)cc1Cl)c1ccccc1C(F)(F)F [Compound I-1-473]
log P: 2.62

Compound: O=C(Nc1ccn(-c2cnc(Cl)cn2)n1)c1ccccc1Cl [Compound I-1-389]
log P: 2.82

Compound: O=C(Nc1ccn(-c2c(F)cccc2F)n1)c1c(F)cccc1F [Compound I-1-84]
log P: 2.42

Lookup result for O=C(Nc1ccn(-c2c(F)cccc2F)n1)c1ccccc1-n1cncn1 [Compound I-1-89] ; measured log P: 1.66

Lookup result for O=C(Nc1ccn(-c2nc(F)c(F)cc2F)n1)c1c(F)cccc1F [Compound I-1-166] ; measured log P: 2.51

----------
Method Notes: Determination of the log P values by HPLC (formic acid method)
Format: physicochemical
Run Parameters: reversed-phase column (C 18), acidic range (pH 3.4), 55° C.
Assay Endpoint: log P
Kindly provide the number alone.

Smi: Cc1ccc(-n2ccc(NC(=O)c3ccccc3Br)n2)c(Cl)c1
log P: 3.23

Lookup result for O=C(Nc1ccn(-c2ccccc2Cl)n1)c1ccccc1I ; measured log P: 2.95

Lookup result for O=C(Nc1ccn(-c2c(F)cccc2F)n1)c1c(F)cccc1Br ; measured log P: 2.72

Lookup result for CCCc1nn(C)c(C(=O)Nc2ccn(-c3c(F)cccc3F)n2)c1Cl ; measured log P: 3.68

----------
Method Notes: Determination of the log P values by HPLC (formic acid method)
Format: physicochemical
Run Parameters: reversed-phase column (C 18), acidic range (pH 3.4), 55° C.
Assay Endpoint: log P

Lookup result for Cn1ncnc1C(=O)Nc1ccn(-c2ncc(F)cc2F)n1 [Compound I-1-449] ; measured log P: 1.67

Lookup result for CCc1ccccc1C(=O)Nc1ccn(-c2c(F)cccc2F)n1 [Compound I-1-78] ; measured log P: 2.92

Lookup result for Cc1ccc(C#N)c(-n2ccc(NC(=O)c3ccccc3C(F)(F)F)n2)n1 [Compound I-1-572] ; measured log P: 2.92

Lookup result for O=C(NC1=NN(c2c(F)cccc2F)CC1)c1ccccc1C(F)(F)F [Compound I-4-7] ; measured log P: 2.34

Lookup result for CCn1ncc(Cl)c1C(=O)Nc1ccn(-c2ncc(F)cc2F)n1 [Compound I-1-526] ; measured log P: 2.42

Lookup result for O=C(Nc1ccn(-c2cc(F)ccc2F)n1)c1occc1I [Compound I-1-222] ; measured log P: 3.14

Lookup result for O=C(Nc1ccn(-c2ncccc2Cl)n1)c1ccccc1Cl [Compound I-1-136] ; measured log P: 2.21

----------
Method Notes: Determination of the log P values by HPLC (formic acid method)
Assay type: physicochemical
Run Parameters: reversed-phase column (C 18), acidic range (pH 3.4), 55° C.
Assay Endpoint: log P
Kindly provide the number alone.

# annotated cases, reported log P shown
Smi: CC(C)Cn1ncc(I)c1C(=O)Nc1ccn(-c2ncc(F)cc2F)n1
log P: 3.28
//
Smi: COc1ccccc1-n1ccc(NC(=O)c2cccnc2C(F)(F)F)n1
log P: 2.37
//
Smi: O=C(Nc1ccn(-c2c(Cl)cccc2Cl)n1)c1ccccc1Cl
log P: 2.84
//
Smi: Cn1ncc(I)c1C(=O)Nc1ccn(-c2c(F)cccc2F)n1
log P: 2.46

Lookup result for O=C(Nc1ccn(-c2c(F)cccc2F)n1)c1ccccc1NC(=O)C(F)(F)F ; measured log P: 3.53

Lookup result for O=C(Nc1ccn(-c2ccccc2Br)n1)c1ncccc1Cl ; measured log P: 2.76

Lookup result for Cc1cc(NC(=O)c2ccccc2C(F)(F)F)nn1-c1ccccc1Cl ; measured log P: 2.58

Lookup result for C#CCN(C(=O)c1ccccc1C(F)(F)F)c1ccn(-c2ncc(F)cc2F)n1 ; measured log P: 3.05

Lookup result for Cc1cn(-c2ccccc2Cl)nc1NC(=O)c1ccccc1Br ; measured log P: 2.86

Lookup result for CCc1cc(NC(=O)c2ccccc2I)nn1-c1ccc(F)cc1F ; measured log P: 4.15

Lookup result for O=C(Nc1ccn(-c2c(F)cccc2F)n1)c1c(F)cccc1C(F)(F)F ; measured log P: 2.72

Lookup result for O=C(Nc1cnn(-c2ncccc2Cl)n1)c1ccccc1I ; measured log P: 2.36

Lookup result for CC1=C(C(=O)Nc2ccn(-c3c(F)cccc3F)n2)CCCO1 ; measured log P: 2.30

----------
Each entry below carries its recorded log P.
Method Notes: Determination of the log P values by HPLC (formic acid method)
Assay type: physicochemical
Run Parameters: reversed-phase column (C 18), acidic range (pH 3.4), 55° C.
Kindly provide the number alone.

Lookup result for O=C(c1ccccc1C(F)(F)F)N(CC1CC1)c1ccn(-c2ncc(F)cc2F)n1 ; measured log P: 3.62

Lookup result for O=C(Nc1cnn(-c2ncccc2F)n1)c1c(F)cccc1C(F)(F)F ; measured log P: 2.26

Lookup result for CCc1cc(NC(=O)c2ccccc2Cl)nn1-c1ccc(F)cc1F ; measured log P: 3.99

Lookup result for Cn1nc([N+](=O)[O-])c(Cl)c1C(=O)Nc1ccn(-c2ncc(F)cc2F)n1 ; measured log P: 2.50

Lookup result for Cc1nn(-c2ccccc2Cl)nc1N(C(=O)c1ccccc1I)C(=O)c1ccccc1I ; measured log P: 4.68

----------
Method Notes: Determination of the log P values by HPLC (formic acid method)
Assay type: physicochemical
Run Parameters: reversed-phase column (C 18), acidic range (pH 3.4), 55° C.
We use 3 as the dividing line for log P: on or above the line is criterion met, below is criterion not met.

Smi: Cc1oc(C)c(C(=O)Nc2ccn(-c3ncc(F)cc3F)n2)c1Br
Label Value: criterion met
//
Smi: Cc1nc(-n2ccc(NC(=O)c3c(F)cccc3F)n2)c(F)cc1F
Label Value: criterion not met
//
Smi: O=C(Nc1cnn(-c2ncc(Cl)cc2Cl)n1)c1cccnc1C(F)(F)F
Label Value: criterion not met
//
Smi: O=C(Nc1ccn(-c2cc(F)ccc2F)n1)c1sccc1I
Label Value: criterion met
//
Smi: CC(C)n1nc([N+](=O)[O-])c(Cl)c1C(=O)Nc1ccn(-c2ncc(F)cc2F)n1
Label Value: criterion met

# bool: log P of O=C(Nc1ccn(-c2cccc(Cl)c2Cl)n1)c1ccccc1Br >= 3 criterion met

# bool: log P of Cc1cc(NC(=O)c2ccccc2OC(F)(F)F)nn1-c1ccccc1Cl >= 3 criterion not met

# bool: log P of O=C(Nc1cnn(-c2ncccc2Cl)n1)c1ccsc1I >= 3 criterion not met

----------
Method Notes: Determination of the log P values by HPLC (formic acid method)
Format: physicochemical
Run Parameters: reversed-phase column (C 18), acidic range (pH 3.4), 55° C.
Assay Endpoint: log P
Kindly provide the number alone.

Smi: N#Cc1cc(F)ccc1-n1ccc(NC(=O)c2ccsc2I)n1
Endpoint Result: 2.73

Smi: O=C(Nc1ccn(-c2ncccc2Br)n1)c1ccccc1C(F)(F)F
Endpoint Result: 2.42

Smi: Cc1noc(C(F)F)c1C(=O)Nc1ccn(-c2c(F)cccc2F)n1
Endpoint Result: 2.53

Smi: O=C(Nc1ccn(-c2ncc(Cl)cc2Cl)n1)c1cc(Cl)ccc1C(F)(F)F
Endpoint Result: 2.93

Smi: Cn1nc(C(F)(F)C(F)(F)F)c(C#N)c1C(=O)Nc1ccn(-c2ncc(F)cc2F)n1
Endpoint Result: 3.19

Smi: Cn1nc(C(F)(F)C(F)(F)F)c(C#N)c1C(=O)Nc1ccn(-c2c(F)cccc2F)n1
Endpoint Result: 3.37

Lookup result for O=C(Nc1ccn(-c2c(Cl)cccc2Cl)n1)c1cccnc1OC(F)(F)F ; measured log P: 3.21

Lookup result for N#Cc1cc(F)ccc1-n1ccc(NC(=O)c2ccccc2I)n1 ; measured log P: 2.57

Lookup result for O=C(Nc1ccn(-c2ncc(Cl)cc2F)n1)c1ccccc1Br ; measured log P: 2.78

----------
Each entry below carries its recorded log P.
Method Notes: Determination of the log P values by HPLC (formic acid method)
Assay type: physicochemical
Run Parameters: reversed-phase column (C 18), acidic range (pH 3.4), 55° C.
Kindly provide the number alone.

# annotated cases, reported log P shown
Smi: O=C(Nc1ccn(-c2ncnc(F)c2F)n1)c1ccccc1Br
log P: 2.46
--
Smi: O=C(Nc1ccn(-c2ccccc2[N+](=O)[O-])n1)c1c(F)cccc1F
log P: 2.34

Now for another entry.
Lookup result for Cc1cnoc1C(=O)Nc1ccn(-c2ncc(F)cc2F)n1 ; measured log P: 2.00
